tested.on: human TLR9 (Homo sapiens)
Sequence (Q9NR96 26-1032): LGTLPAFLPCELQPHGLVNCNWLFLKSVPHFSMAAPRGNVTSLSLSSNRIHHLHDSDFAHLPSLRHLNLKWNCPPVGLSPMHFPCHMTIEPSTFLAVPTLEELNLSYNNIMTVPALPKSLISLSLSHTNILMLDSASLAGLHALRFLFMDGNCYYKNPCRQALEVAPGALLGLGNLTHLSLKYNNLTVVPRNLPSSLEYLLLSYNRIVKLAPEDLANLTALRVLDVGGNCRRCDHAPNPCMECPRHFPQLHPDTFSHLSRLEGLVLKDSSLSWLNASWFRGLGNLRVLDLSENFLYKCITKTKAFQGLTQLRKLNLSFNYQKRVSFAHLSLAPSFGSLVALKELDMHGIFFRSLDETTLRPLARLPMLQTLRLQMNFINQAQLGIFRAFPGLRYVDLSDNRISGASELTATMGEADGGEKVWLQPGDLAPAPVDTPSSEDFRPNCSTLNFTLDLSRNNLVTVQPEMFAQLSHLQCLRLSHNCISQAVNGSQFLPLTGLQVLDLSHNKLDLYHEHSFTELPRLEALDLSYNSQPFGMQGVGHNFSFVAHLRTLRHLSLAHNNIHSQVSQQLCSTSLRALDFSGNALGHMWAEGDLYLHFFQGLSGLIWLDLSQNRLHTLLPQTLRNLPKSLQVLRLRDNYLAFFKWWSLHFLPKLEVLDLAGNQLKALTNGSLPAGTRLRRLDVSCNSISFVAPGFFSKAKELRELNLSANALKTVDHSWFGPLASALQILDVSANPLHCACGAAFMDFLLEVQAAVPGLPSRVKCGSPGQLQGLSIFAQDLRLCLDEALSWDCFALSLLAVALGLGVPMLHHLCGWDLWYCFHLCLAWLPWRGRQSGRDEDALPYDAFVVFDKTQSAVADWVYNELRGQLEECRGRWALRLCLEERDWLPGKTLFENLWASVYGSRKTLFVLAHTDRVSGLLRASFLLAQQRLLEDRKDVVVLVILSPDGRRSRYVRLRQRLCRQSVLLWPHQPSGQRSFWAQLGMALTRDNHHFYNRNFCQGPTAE
procedure.summary: TLR9 inhibition reporter assay (HEK-Blue cells, SEAP reporter, ODN2006 stimulation)
particulars: HEK-Blue cells overexpressing human TLR9, SEAP reporter, ODN2006 5 nM
pIC50: −log10 of the molar value.
observed.property: pIC50

compound=COc1cc(-c2[nH]c3ccc(C4CCN(CC(C)(C)O)CC4)cc3c2C(C)C)nn2ncnc12 observed_property=pIC50 recorded_result="4.30 to 6.00"
compound=CCc1c(-c2cccc3[nH]ncc23)[nH]c2ccc(C3CCN(CC(=O)NC)CC3)cc12 observed_property=pIC50 recorded_result="< 4.30"
compound=Cc1c(-c2ncnc3[nH]cnc23)[nH]c2ccc(C3CCN(C4CCN(C(C)C)CC4)CC3)cc12 observed_property=pIC50 recorded_result="> 7.00"
compound=Cc1cc(-c2[nH]c3ccc(C4CCN(C5CCOCC5)CC4)cc3c2C(C)C)cn2ccnc12 observed_property=pIC50 recorded_result="6.00 to 7.00"
compound=Cc1cc2nnnn2cc1-c1[nH]c2ccc(C3CCNCC3)cc2c1C(C)C observed_property=pIC50 recorded_result="4.30 to 6.00"
compound=Cc1c(-c2[nH]c3ccc(C4CCNCC4)cc3c2C(C)C)ccc2nnnn12 observed_property=pIC50 recorded_result="4.30 to 6.00"
compound="COC(=O)C1CC(N2CCC(c3ccc4[nH]c(-c5ccnc6[nH]ncc56)c(C(C)C)c4c3)CC2)CCN1 (centres unmarked) [Example 831]" observed_property=pIC50 recorded_result="6.00 to 7.00"
compound=CC(C)c1c(-c2cn3ccnc3cc2Cl)[nH]c2ccc(C3CCNCC3)cc12 observed_property=pIC50 recorded_result="4.30 to 6.00"

----------
IC50 reference
tested.on: human TLR8 (Homo sapiens, UniProt Q9NR97)
Sequence (Q9NR97 27-1041): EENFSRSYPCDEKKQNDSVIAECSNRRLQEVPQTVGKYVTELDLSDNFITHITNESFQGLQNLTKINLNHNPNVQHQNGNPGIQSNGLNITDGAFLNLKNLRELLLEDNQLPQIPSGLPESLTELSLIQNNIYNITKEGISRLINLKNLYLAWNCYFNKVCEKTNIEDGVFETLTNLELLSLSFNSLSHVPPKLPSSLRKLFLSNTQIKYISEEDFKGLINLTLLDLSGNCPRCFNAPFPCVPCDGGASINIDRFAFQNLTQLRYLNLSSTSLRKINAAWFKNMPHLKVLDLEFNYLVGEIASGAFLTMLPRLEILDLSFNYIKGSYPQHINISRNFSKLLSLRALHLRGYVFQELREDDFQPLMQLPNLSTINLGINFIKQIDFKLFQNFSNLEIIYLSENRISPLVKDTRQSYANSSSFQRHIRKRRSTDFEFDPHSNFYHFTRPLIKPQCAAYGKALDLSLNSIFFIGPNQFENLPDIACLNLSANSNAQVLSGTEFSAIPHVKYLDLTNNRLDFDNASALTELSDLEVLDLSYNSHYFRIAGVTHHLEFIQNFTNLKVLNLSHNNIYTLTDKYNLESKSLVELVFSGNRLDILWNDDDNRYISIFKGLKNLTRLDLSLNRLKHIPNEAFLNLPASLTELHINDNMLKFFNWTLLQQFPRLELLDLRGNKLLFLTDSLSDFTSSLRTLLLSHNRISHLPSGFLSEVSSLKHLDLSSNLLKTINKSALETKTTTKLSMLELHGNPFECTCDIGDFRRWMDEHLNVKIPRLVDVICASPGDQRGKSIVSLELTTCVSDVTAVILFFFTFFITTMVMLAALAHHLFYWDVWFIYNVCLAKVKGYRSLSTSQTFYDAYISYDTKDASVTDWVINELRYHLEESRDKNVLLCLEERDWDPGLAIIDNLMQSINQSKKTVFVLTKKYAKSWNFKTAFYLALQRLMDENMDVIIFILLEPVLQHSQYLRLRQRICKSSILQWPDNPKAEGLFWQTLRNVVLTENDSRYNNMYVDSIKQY
procedure.summary: TLR8 inhibition reporter assay (HEK-Blue cells, SEAP reporter, R848 stimulation)
particulars: HEK-Blue cells overexpressing human TLR8, SEAP reporter, R848 15.9 μM
observed.property: IC50

molecule="CC(C)c1c(-c2ccc3nccn3c2)[nH]c2ccc(C3CCN(C(=O)[C@@H]4CCCNC4)CC3)cc12 [Example 639]" recorded_result="100 to 1000 nM"
molecule="Cc1cc(-c2[nH]c3ccc(C4CCNCC4)cc3c2C(C)C)cc2c1oc(=O)n2C [Example 90]" recorded_result="100 to 1000 nM"
molecule="COc1cc(CN(C)C)cc(CN2CCC(c3ccc4[nH]c(-c5ccnc6[nH]ncc56)c(C(C)C)c4c3)CC2)c1O [Example 924]" recorded_result="< 100 nM"
molecule="Cc1cc2ncnn2nc1-c1[nH]c2ccc(C3CCNCC3)cc2c1C(C)C [Example 31]" recorded_result="< 100 nM"
molecule="CC(C)c1c(-c2ccnc3[nH]ncc23)[nH]c2ccc(C3CCN(C(=O)c4cscn4)CC3)cc12 [Example 611]" recorded_result="100 to 1000 nM"
molecule="CCc1c(-c2ccc3[nH]c(=O)[nH]c3c2)[nH]c2ccc(C3CCNCC3)cc12 [Example 166]" recorded_result="100 to 1000 nM"
molecule="CC(C)c1c(-c2cc(F)c3nccn3c2)[nH]c2ccc(C3CCN(C(=O)C[C@@H](C)O)CC3)cc12 [Example 605]" recorded_result="1000 to 50000 nM"
molecule="CC(C)c1c(-c2ccc3nccnc3c2)[nH]c2ccc(C3CCNCC3)cc12 [Example 165]" recorded_result="100 to 1000 nM"
